molecular target: D2 dopamine receptor (Homo sapiens, UniProt P14416); assay: R-SAT competitive antagonist assay
Sequence (P14416 whole entry): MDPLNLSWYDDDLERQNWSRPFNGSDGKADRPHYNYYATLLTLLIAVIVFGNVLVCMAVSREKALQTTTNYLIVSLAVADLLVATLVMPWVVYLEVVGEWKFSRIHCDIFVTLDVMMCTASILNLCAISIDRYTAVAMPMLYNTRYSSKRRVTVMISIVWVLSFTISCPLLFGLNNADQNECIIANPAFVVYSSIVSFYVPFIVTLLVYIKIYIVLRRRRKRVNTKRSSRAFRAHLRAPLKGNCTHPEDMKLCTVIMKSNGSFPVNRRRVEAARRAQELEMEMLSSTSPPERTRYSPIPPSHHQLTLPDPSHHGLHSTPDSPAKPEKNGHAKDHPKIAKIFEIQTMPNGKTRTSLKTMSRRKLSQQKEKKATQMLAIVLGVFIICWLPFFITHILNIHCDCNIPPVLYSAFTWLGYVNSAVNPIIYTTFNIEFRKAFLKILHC
parameterMeasured: pKi
In simple prose, pKi is minus the logarithm base ten of a concentration in moles per litre.

Need pKi, item Clc1ccc2c(c1)N=C(N1CCNCC1)c1ccccc1N2 [NDMC]
7.20

----------
experiment: Pharmacokinetics after i.v. or oral dose in dogs; assay type: in vivo, beagle dogs; details: beagle, dog, plasma, po, 10 mg/kg, Plasma concentration after NDMC administration, 240 min, NDMC p.o. 10 mg/kg
parameterMeasured: concentration at 240 min (ng/mL)
Dear colleague, please return just the value in ng/mL, with no unit written.

Need concentration at 240 min, item `Clc1ccc2c(c1)N=C(N1CCNCC1)c1ccccc1N2`
274

----------
Biological target: M1 muscarinic receptor (Homo sapiens)
Sequence (P11229 1-460): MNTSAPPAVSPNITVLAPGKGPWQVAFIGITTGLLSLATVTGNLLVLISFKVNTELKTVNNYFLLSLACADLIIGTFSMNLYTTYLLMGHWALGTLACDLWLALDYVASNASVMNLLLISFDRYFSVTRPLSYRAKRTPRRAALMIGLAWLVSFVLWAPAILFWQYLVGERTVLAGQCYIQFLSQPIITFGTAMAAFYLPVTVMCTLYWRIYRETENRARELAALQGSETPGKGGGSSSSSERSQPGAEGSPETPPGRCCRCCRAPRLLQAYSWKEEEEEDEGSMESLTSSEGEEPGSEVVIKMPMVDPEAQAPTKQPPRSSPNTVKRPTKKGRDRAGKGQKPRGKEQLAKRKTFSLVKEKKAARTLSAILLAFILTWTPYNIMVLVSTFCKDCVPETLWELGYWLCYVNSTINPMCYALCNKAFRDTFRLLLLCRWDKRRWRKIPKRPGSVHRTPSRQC
Test: R-SAT agonist assay
Type: cell-based
Design: expressed in transfected cells; host or cells: NIH/3T3
Details: R-SAT functional agonist screen of 462-compound library; read-out: EC50 at human M1 receptor
pEC50: −log10 of the molar value.
parameterMeasured: pEC50

Need pEC50, item Cc1ccc(C2(O)CCN(CCCC(=O)c3ccc(F)cc3)CC2)cc1 [Moperone, reference compound]
< 6.00

----------
test: Pharmacokinetics after i.v. or oral dose in dogs; type: in vivo, beagle dogs; details: beagle, dog, plasma, iv, 1 mg/kg, Plasma concentration of compound measured after clozapine administration, 240 min, clozapine i.v. 1 mg/kg
parameterMeasured: concentration at 240 min (ng/mL)
Dear colleague, please return just the value in ng/mL, with no unit written.

Need concentration at 240 min, item `Clc1ccc2c(c1)N=C(N1CCNCC1)c1ccccc1N2`
4.44

----------
molecular target: H1 histamine receptor (Homo sapiens)
Sequence (P35367 whole entry): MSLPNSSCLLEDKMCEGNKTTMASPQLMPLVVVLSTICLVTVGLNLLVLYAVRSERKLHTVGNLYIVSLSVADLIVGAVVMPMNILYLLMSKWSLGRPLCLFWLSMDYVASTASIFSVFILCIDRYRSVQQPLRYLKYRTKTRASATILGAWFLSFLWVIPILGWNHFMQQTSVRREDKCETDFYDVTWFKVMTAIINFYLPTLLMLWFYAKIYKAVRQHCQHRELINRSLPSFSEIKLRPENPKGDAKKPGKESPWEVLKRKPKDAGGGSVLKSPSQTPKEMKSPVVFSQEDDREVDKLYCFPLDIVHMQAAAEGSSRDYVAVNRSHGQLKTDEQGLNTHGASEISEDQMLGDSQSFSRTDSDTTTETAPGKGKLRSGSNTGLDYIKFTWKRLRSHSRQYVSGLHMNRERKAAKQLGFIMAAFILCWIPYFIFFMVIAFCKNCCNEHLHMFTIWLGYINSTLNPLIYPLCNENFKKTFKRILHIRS
parameterMeasured: Ki (nM)
Dear colleague, please return just the value in nM, with no unit written.

Need Ki, item Clc1ccc2c(c1)N=C(N1CCNCC1)c1ccccc1N2 [NDMC]
6.31

----------
assay: Pharmacokinetics after i.v. or oral dose in dogs; type: in vivo, beagle dogs; settings: beagle, dog, serum, iv, 1 mg/kg
parameterMeasured: half-life (h)
Dear colleague, please return just the value in h, with no unit written.

Need half-life, item Clc1ccc2c(c1)N=C(N1CCNCC1)c1ccccc1N2 [NDMC]
13.2

----------
biological target: M1 muscarinic receptor (Homo sapiens); test: cell-based; conditions: M1 pEC50, PI hydrolysis, agonist
parameterMeasured: EC50 (nM)
Dear colleague, please return just the value in nM, with no unit written.

Need EC50, item Clc1ccc2c(c1)N=C(N1CCNCC1)c1ccccc1N2 [NDMC]
200

----------
assay: Pharmacokinetics after i.v. or oral dose in dogs; type: in vivo, beagle dogs; conditions: beagle, dog, plasma, iv, 1 mg/kg, Plasma concentration of compound measured after clozapine administration, 10 min, clozapine i.v. 1 mg/kg
parameterMeasured: concentration at 10 min (ng/mL)
Dear colleague, please return just the value in ng/mL, with no unit written.

Need concentration at 10 min, item `Clc1ccc2c(c1)N=C(N1CCNCC1)c1ccccc1N2`
0.64

----------
molecular target: M1 muscarinic receptor (Homo sapiens); test: cell-based; conditions: potency, M1 agonist, PI hydrolysis; n=3
parameterMeasured: pEC50
In simple prose, pEC50 is minus the logarithm base ten of a concentration in moles per litre.

Give the reported pEC50 for Clc1ccc2c(c1)N=C(N1CCNCC1)c1ccccc1N2 [NDMC] (system: M1 muscarinic receptor (Homo sapiens)).
7.03

----------
test: Pharmacokinetics after single i.v. or oral dose in rats; format: in vivo, Sprague-Dawley rats; details: male, Sprague-Dawley, rat, plasma, po, 10 mg/kg, after clozapine p.o. 10 mg/kg, read-out: Tmax of compound measured (converted)
parameterMeasured: Tmax (min)
Dear colleague, please return just the value in min, with no unit written.

Need Tmax, item `Clc1ccc2c(c1)N=C(N1CCNCC1)c1ccccc1N2`
30

----------
experiment: Pharmacokinetics after i.v. or oral dose in dogs; format: in vivo, beagle dogs; details: beagle, dog, plasma, po, 10 mg/kg, Plasma concentration of compound measured after clozapine administration, 240 min, clozapine p.o. 10 mg/kg
parameterMeasured: concentration at 240 min (ng/mL)
Dear colleague, please return just the value in ng/mL, with no unit written.

Need concentration at 240 min, item Clc1ccc2c(c1)N=C(N1CCNCC1)c1ccccc1N2 [NDMC]
19.2

----------
test: Pharmacokinetics after single i.v. or oral dose in rats; assay type: in vivo, Sprague-Dawley rats; settings: male, Sprague-Dawley, rat, plasma, iv, 1 mg/kg, after NDMC i.v. 1 mg/kg, read-out: Cmax
parameterMeasured: Cmax (ng/mL)
Dear colleague, please return just the value in ng/mL, with no unit written.

Need Cmax, item Clc1ccc2c(c1)N=C(N1CCNCC1)c1ccccc1N2 [NDMC]
756

----------
assay: Pharmacokinetics after single i.v. or oral dose in rats; type: in vivo, Sprague-Dawley rats; details: male, Sprague-Dawley, rat, plasma, iv, 1 mg/kg, Plasma concentration after NDMC administration, 60 min, NDMC i.v. 1 mg/kg, mean ± SD
parameterMeasured: concentration at 60 min (ng/mL)
Dear colleague, please return just the value in ng/mL, with no unit written.

Need concentration at 60 min, item `Clc1ccc2c(c1)N=C(N1CCNCC1)c1ccccc1N2`
126

----------
assay: Pharmacokinetics after single i.v. or oral dose in rats; type: in vivo, Sprague-Dawley rats; conditions: male, Sprague-Dawley, rat, serum, po, 10 mg/kg, after NDMC p.o. 10 mg/kg, read-out: Tmax
parameterMeasured: Tmax

Need Tmax, item `Clc1ccc2c(c1)N=C(N1CCNCC1)c1ccccc1N2`
≤ 30 min

----------
test: Pharmacokinetics after i.v. or oral dose in dogs; type: in vivo, beagle dogs; conditions: beagle, dog, plasma, po, 10 mg/kg, Plasma concentration after NDMC administration, 30 min, NDMC p.o. 10 mg/kg
parameterMeasured: concentration at 30 min (ng/mL)
Dear colleague, please return just the value in ng/mL, with no unit written.

Need concentration at 30 min, item Clc1ccc2c(c1)N=C(N1CCNCC1)c1ccccc1N2 [NDMC]
14

----------
assay: Pharmacokinetics after single i.v. or oral dose in rats; format: in vivo, Sprague-Dawley rats; conditions: male, Sprague-Dawley, rat, plasma, iv, 1 mg/kg, after NDMC i.v. 1 mg/kg, read-out: Tmax
parameterMeasured: Tmax (h)
Dear colleague, please return just the value in h, with no unit written.

Need Tmax, item `Clc1ccc2c(c1)N=C(N1CCNCC1)c1ccccc1N2`
0

----------
test: Pharmacokinetics after i.v. or oral dose in dogs; type: in vivo, beagle dogs; conditions: beagle, dog, plasma, iv, 1 mg/kg, Plasma concentration of compound measured after clozapine administration, 5 min, clozapine i.v. 1 mg/kg
parameterMeasured: concentration at 5 min (ng/mL)
Dear colleague, please return just the value in ng/mL, with no unit written.

Need concentration at 5 min, item `Clc1ccc2c(c1)N=C(N1CCNCC1)c1ccccc1N2`
0.47

----------
test: Pharmacokinetics after i.v. or oral dose in dogs; type: in vivo, beagle dogs; settings: beagle, dog, plasma, iv, 1 mg/kg, Plasma concentration of compound measured after clozapine administration, 30 min, clozapine i.v. 1 mg/kg
parameterMeasured: concentration at 30 min (ng/mL)
Dear colleague, please return just the value in ng/mL, with no unit written.

Need concentration at 30 min, item Clc1ccc2c(c1)N=C(N1CCNCC1)c1ccccc1N2 [NDMC]
1.72

----------
experiment: Pharmacokinetics after i.v. or oral dose in dogs; format: in vivo, beagle dogs; settings: beagle, dog, plasma, iv, 1 mg/kg, Plasma concentration after NDMC administration, 120 min, NDMC i.v. 1 mg/kg
parameterMeasured: concentration at 120 min (ng/mL)
Dear colleague, please return just the value in ng/mL, with no unit written.

Need concentration at 120 min, item Clc1ccc2c(c1)N=C(N1CCNCC1)c1ccccc1N2 [NDMC]
28

----------
test: Pharmacokinetics after i.v. or oral dose in dogs; format: in vivo, beagle dogs; conditions: beagle, dog, plasma, iv, 1 mg/kg, Plasma concentration after NDMC administration, 10 min, NDMC i.v. 1 mg/kg
parameterMeasured: concentration at 10 min (ng/mL)
Dear colleague, please return just the value in ng/mL, with no unit written.

Need concentration at 10 min, item `Clc1ccc2c(c1)N=C(N1CCNCC1)c1ccccc1N2`
50
